# system.under.test: Aβ42 (Homo sapiens)
# Construct: Human Aβ42 (4349-v, Peptide Institute); purchased Peptide Institute 4349-v
# protocol.notes: automated MSHTS system, Aβ aggregation inhibition imaged with QDAβ nanoprobe
# Type: biochemical
# details: 25 µM Aβ, 25 nM QDAβ, 1536-well plate, 24 h at 37 °C; average of 61 sets; read-out: EC50 of Aβ aggregation inhibition, positive control
assay.endpoint: EC50 (µM)
Write it as a number; the unit µM goes unstated.

Recorded result, O=C(/C=C/c1ccc(O)c(O)c1)O[C@H](Cc1ccc(O)c(O)c1)C(=O)O , EC50: 26.9

----------
# system.under.test: Aβ42 (Homo sapiens, UniProt P05067)
# Construct: Human Aβ42 (4349-v, Peptide Institute); purchased Peptide Institute 4349-v
# Sequence (P05067 672-713 limits assumed): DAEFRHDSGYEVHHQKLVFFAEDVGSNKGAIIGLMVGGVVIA
# protocol.notes: manual MSHTS system, Aβ aggregation inhibition
# Type: biochemical
# details: tropolone derivatives; read-out: MSHTS [µM], EC50, Supplementary Table S4
assay.endpoint: EC50 (µM)
Write it as a number; the unit µM goes unstated.

Recorded result, O=c1ccc(/N=N/c2cc([N+](=O)[O-])cc([N+](=O)[O-])c2)ccc1O , EC50: 6.6
